Entry source: ChEMBL document CHEMBL1154078

- MEASURED_TARGET: Cholinesterase (Homo sapiens)
- TEST: Inhibition of BChE in human serum assessed as hydrolysis of butyrylthiocholine at 100 ug/mL by Ellman's method
- Format: cell-free
REPORTED_ENDPOINT: inhibition

A selection of reference data follows.
* CO[C@H]1O[C@H](CO)[C@@H](O)[C@@]2(O)[C@@H](O)CO[C@@H]12 | < 5%
* CC(=O)Nc1nc(Cl)c2c(ncn2[C@@H]2O[C@H](COC(C)=O)[C@@H](OCc3ccccc3)[C@@]3(OCc4ccccc4)[C@@H](OCc4ccccc4)CO[C@@H]23)n1 | 84%

// moving on: another record for inhibition
Dear colleague, I am looking for the recorded inhibition of the following compound: `C=C[C@@H](O)[C@@H]1O[C@H](OC)[C@@H]2OC[C@H](OCc3ccccc3)[C@]2(OCc2ccccc2)[C@@H]1OCc1ccccc1`
73%

----------
Item-by-item account of viability at 24 h, 2 ug/mL
- TEST: Cytotoxicity against human A549 cells assessed as cell viability at 2 ug/mL after 24 hrs by MTT assay relative to control
- Format: cell-based
- TEST_SETTINGS: read-out: Activity
Report the value in % with no unit label.

* CO[C@H]1O[C@@H]([C@@H](N=[N+]=[N-])C(=O)OCc2ccccc2)[C@@H](OCc2ccccc2)[C@@]2(OCc3ccccc3)[C@@H](OCc3ccccc3)CO[C@@H]12 | 76.2
* CO[C@H]1O[C@@H]([C@H](N=[N+]=[N-])C(=O)OCc2ccccc2)[C@@H](OCc2ccccc2)[C@@]2(OCc3ccccc3)[C@@H](OCc3ccccc3)CO[C@@H]12 | 71.2
* CC(=O)Nc1nc(Cl)c2c(ncn2[C@@H]2O[C@@H]([C@H](N=[N+]=[N-])C(=O)OCc3ccccc3)[C@@H](OCc3ccccc3)[C@@]3(OCc4ccccc4)[C@@H](OCc4ccccc4)CO[C@@H]23)n1 | 82.2

Dear colleague, I am looking for the recorded viability at 24 h, 2 ug/mL of the following molecule: `COC(=O)[C@H](N=[N+]=[N-])[C@@H]1O[C@@H](n2cnc3nc(NC(C)=O)nc(Cl)c32)[C@@H]2OC[C@H](OCc3ccccc3)[C@]2(OCc2ccccc2)[C@@H]1OCc1ccccc1`
99.9

Dear colleague, I am looking for the recorded viability at 24 h, 2 ug/mL of the following molecule: `COC(=O)[C@@H](N=[N+]=[N-])[C@@H]1O[C@@H](n2cnc3nc(NC(C)=O)nc(Cl)c32)[C@@H]2OC[C@H](OCc3ccccc3)[C@]2(OCc2ccccc2)[C@@H]1OCc1ccccc1`
77.7

Dear colleague, I am looking for the recorded viability at 24 h, 2 ug/mL of the following molecule: `CO[C@H]1O[C@@H]([C@@H](O)C(=O)OCc2ccccc2)[C@@H](OCc2ccccc2)[C@@]2(OCc3ccccc3)[C@@H](OCc3ccccc3)CO[C@@H]12`
81.6

----------
- MEASURED_TARGET: Cholinesterase (Homo sapiens, UniProt P06276)
- Sequence (P06276 whole entry): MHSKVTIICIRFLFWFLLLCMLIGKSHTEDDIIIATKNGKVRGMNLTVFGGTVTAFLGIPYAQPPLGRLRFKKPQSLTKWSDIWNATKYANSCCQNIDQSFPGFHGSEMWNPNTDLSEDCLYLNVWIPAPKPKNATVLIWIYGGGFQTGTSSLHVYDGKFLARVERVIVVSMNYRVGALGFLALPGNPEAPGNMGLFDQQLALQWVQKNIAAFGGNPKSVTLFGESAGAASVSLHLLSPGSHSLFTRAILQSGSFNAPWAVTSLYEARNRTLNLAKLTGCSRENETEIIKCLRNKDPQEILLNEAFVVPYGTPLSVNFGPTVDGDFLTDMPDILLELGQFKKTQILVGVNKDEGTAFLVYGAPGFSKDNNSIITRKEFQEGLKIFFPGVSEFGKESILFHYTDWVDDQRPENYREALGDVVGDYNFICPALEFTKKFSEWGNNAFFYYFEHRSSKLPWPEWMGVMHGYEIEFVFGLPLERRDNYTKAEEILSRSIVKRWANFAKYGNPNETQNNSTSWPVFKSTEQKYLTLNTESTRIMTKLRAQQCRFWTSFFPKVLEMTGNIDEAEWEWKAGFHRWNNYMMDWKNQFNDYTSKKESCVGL
- TEST: Inhibition of BChE in human serum assessed as hydrolysis of butyrylthiocholine at 100 ug/mL by Ellman's method
- Format: cell-free
Item-by-item account of inhibition
Report the value in % with no unit label.

A selection of reference data follows.
• CO[C@H]1O[C@@H]([C@H](O)C(=O)OCc2ccccc2)[C@@H](OCc2ccccc2)[C@@]2(OCc3ccccc3)[C@@H](OCc3ccccc3)CO[C@@H]12 = 55
• CC(=O)Nc1nc(Cl)c2ncn([C@@H]3O[C@H](COC(C)=O)[C@@H](OCc4ccccc4)[C@@]4(OCc5ccccc5)[C@@H](OCc5ccccc5)CO[C@@H]34)c2n1 = 48
• CO[C@H]1O[C@@H]([C@@H](N=[N+]=[N-])C(=O)OCc2ccccc2)[C@@H](OCc2ccccc2)[C@@]2(OCc3ccccc3)[C@@H](OCc3ccccc3)CO[C@@H]12 = 98
• C=C[C@H](O)[C@@H]1O[C@H](OC)[C@@H]2OC[C@H](OCc3ccccc3)[C@]2(OCc2ccccc2)[C@@H]1OCc1ccccc1 = 76
• CCN(C)C(=O)Oc1cccc([C@H](C)N(C)C)c1 = 100
• CO[C@H]1O[C@@H]([C@H](N=[N+]=[N-])C(=O)OCc2ccccc2)[C@@H](OCc2ccccc2)[C@@]2(OCc3ccccc3)[C@@H](OCc3ccccc3)CO[C@@H]12 = 91
• CC(=O)Nc1nc(Cl)c2c(ncn2[C@@H]2O[C@@H]([C@H](N=[N+]=[N-])C(=O)OCc3ccccc3)[C@@H](OCc3ccccc3)[C@@]3(OCc4ccccc4)[C@@H](OCc4ccccc4)CO[C@@H]23)n1 = 81
• CO[C@H]1O[C@H](COC(=O)c2ccccc2)[C@@H](OC(=O)c2ccccc2)[C@@]2(OC(=O)c3ccccc3)[C@@H](OC(=O)c3ccccc3)CO[C@@H]12 = 7

Dear colleague, I am looking for the recorded inhibition of the following compound: `CO[C@H]1O[C@@H]([C@@H](O)C(=O)OCc2ccccc2)[C@@H](OCc2ccccc2)[C@@]2(OCc3ccccc3)[C@@H](OCc3ccccc3)CO[C@@H]12`
95

Dear colleague, I am looking for the recorded inhibition of the following compound: `CC(=O)Nc1nc(Cl)c2c(ncn2[C@@H]2O[C@@H]([C@@H](N=[N+]=[N-])C(=O)OCc3ccccc3)[C@@H](OCc3ccccc3)[C@@]3(OCc4ccccc4)[C@@H](OCc4ccccc4)CO[C@@H]23)n1`
91

Dear colleague, I am looking for the recorded inhibition of the following compound: `CO[C@H]1O[C@H](CO)[C@@H](OCc2ccccc2)[C@@]2(OCc3ccccc3)[C@@H](OCc3ccccc3)CO[C@@H]12`
60

----------
- MEASURED_TARGET: Cholinesterase (Homo sapiens)
- TEST: Inhibition of BChE in human serum assessed as hydrolysis of butyrylthiocholine by Ellman's method
REPORTED_ENDPOINT: pIC50
Worth noting: pIC50 values are minus log10 of concentrations stated in mol/L.

A selection of reference data follows.
- CC(=O)Nc1nc(Cl)c2c(ncn2[C@@H]2O[C@@H]([C@H](N=[N+]=[N-])C(=O)OCc3ccccc3)[C@@H](OCc3ccccc3)[C@@]3(OCc4ccccc4)[C@@H](OCc4ccccc4)CO[C@@H]23)n1: 4.66
- CO[C@H]1O[C@@H]([C@H](N=[N+]=[N-])C(=O)OCc2ccccc2)[C@@H](OCc2ccccc2)[C@@]2(OCc3ccccc3)[C@@H](OCc3ccccc3)CO[C@@H]12: 5.38
- CO[C@H]1O[C@@H]([C@@H](O)C(=O)OCc2ccccc2)[C@@H](OCc2ccccc2)[C@@]2(OCc3ccccc3)[C@@H](OCc3ccccc3)CO[C@@H]12: 4.79
- C=C[C@H](O)[C@@H]1O[C@H](OC)[C@@H]2OC[C@H](OCc3ccccc3)[C@]2(OCc2ccccc2)[C@@H]1OCc1ccccc1: 4.51

Query for Cholinesterase (Homo sapiens): what pIC50 does the record show for `CO[C@H]1O[C@@H]([C@H](O)C(=O)OCc2ccccc2)[C@@H](OCc2ccccc2)[C@@]2(OCc3ccccc3)[C@@H](OCc3ccccc3)CO[C@@H]12` ?
3.88

Query for Cholinesterase (Homo sapiens): what pIC50 does the record show for `CO[C@H]1O[C@H](CO)[C@@H](OCc2ccccc2)[C@@]2(OCc3ccccc3)[C@@H](OCc3ccccc3)CO[C@@H]12` ?
3.83

Query for Cholinesterase (Homo sapiens): what pIC50 does the record show for `C=C[C@@H](O)[C@@H]1O[C@H](OC)[C@@H]2OC[C@H](OCc3ccccc3)[C@]2(OCc2ccccc2)[C@@H]1OCc1ccccc1` ?
4.30

----------
- TEST: Cytotoxicity against human A549 cells assessed as cell viability at 2000 ug/mL after 24 hrs by MTT assay relative to control
- Type: cell-based
- TEST_SETTINGS: read-out: Activity
Item-by-item account of viability at 24 h, 2000 ug/mL
The reply must contain the numeric value and, after it, the unit.

A selection of reference data follows.
• CO[C@H]1O[C@@H]([C@@H](O)C(=O)OCc2ccccc2)[C@@H](OCc2ccccc2)[C@@]2(OCc3ccccc3)[C@@H](OCc3ccccc3)CO[C@@H]12 = 36%
• CC(=O)Nc1nc(Cl)c2c(ncn2[C@@H]2O[C@@H]([C@H](N=[N+]=[N-])C(=O)OCc3ccccc3)[C@@H](OCc3ccccc3)[C@@]3(OCc4ccccc4)[C@@H](OCc4ccccc4)CO[C@@H]23)n1 = 7.32%

// moving on: another record for viability at 24 h, 2000 ug/mL
Dear colleague, I am looking for the recorded viability at 24 h, 2000 ug/mL of the following compound: `CO[C@H]1O[C@@H]([C@@H](N=[N+]=[N-])C(=O)OCc2ccccc2)[C@@H](OCc2ccccc2)[C@@]2(OCc3ccccc3)[C@@H](OCc3ccccc3)CO[C@@H]12`
16%
